# System: UACC-257 melanoma
# assay overview: NCI tumour cell line growth inhibition, 48 h; in the data active = GI50 below about 0.43 µM; inactive = the rest
Outcomes: Yes (active), No (inactive)

- compound: "C[C@@H]1CC[C@H]2[C@@H](C)C(O)O[C@@H]3O[C@]4(C)CC[C@@H]1[C@]32OO4 (stereo partly drawn)"
  class: "No"
- compound: "C=CC(=O)N[C@@H]1CN(c2nc(Nc3cn(C)nc3OC)c3ncn(C)c3n2)C[C@H]1F"
  class: "No"
- compound: "Cc1cccc2c(C3=C(c4cn(C)c5ccccc45)C(=O)NC3=O)cn(C)c12"
  class: "No"
- compound: "Cc1cc(F)c(C(=O)Nc2cccc(-c3nncn3C(C)C)n2)cc1-n1cnc(C2CC2)c1"
  class: "No"
- compound: "C[C@H]1CCC/C=C/C2CC(OC(=O)CN(C)C)CC2C(OC(=O)CN(C)C)/C=C/C(=O)O1 (stereo partly drawn)"
  class: "Yes"
- compound: "COc1cc2c(Oc3ccc(NC(=O)C4(C(=O)Nc5ccc(F)cc5)CC4)cc3F)ccnc2cc1OCCCN1CCOCC1"
  class: "No"
- compound: "COc1ccc2[nH]c(Cl)c(/C=C3/C(=O)Nc4ccccc43)c2c1"
  class: "No"
- compound: "CC1(C)OB(c2ccc(N(CCOS(C)(=O)=O)CCOS(C)(=O)=O)cc2)OC1(C)C"
  class: "No"

The reported measurements were obtained from PubChem BioAssay (NCI).
